# MEASURED TARGET: Adenosine receptor A1 (Homo sapiens) (UniProt P30542)
# Sequence (whole entry): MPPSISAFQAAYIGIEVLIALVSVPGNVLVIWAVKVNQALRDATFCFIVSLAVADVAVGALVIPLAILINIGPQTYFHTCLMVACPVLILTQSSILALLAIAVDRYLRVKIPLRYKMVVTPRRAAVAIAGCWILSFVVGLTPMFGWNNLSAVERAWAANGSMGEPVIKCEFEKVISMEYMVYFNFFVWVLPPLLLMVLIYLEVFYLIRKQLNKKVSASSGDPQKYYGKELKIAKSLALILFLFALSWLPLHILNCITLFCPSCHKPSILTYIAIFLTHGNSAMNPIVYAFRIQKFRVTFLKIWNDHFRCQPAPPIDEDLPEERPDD
# TEST NAME: Agonist activity at human adenosine A1 receptor expressed in CHO cells assessed as Gi-mediated inhibition of forskolin-stimulated SPAP secretion incubated for 10 mins prior to forskolin challenge measured after 5 hrs by spectrophotometry
# Format: functional, cell-based
Item-by-item account of inhibition
Output should be the measured figure followed by the unit it is expressed in.

# SUBSTANCE SMILES, inhibition
rows = [
    ("CCNC(=O)[C@H]1O[C@@H](n2cnc3c(NCCOCCOCCOCCNC(=O)COc4ccc(/C=C/C5=[N+]6C(=Cc7ccc(-c8cccs8)n7[B-]6(F)F)C=C5)cc4)ncnc32)[C@H](O)[C@@H]1O", "99%"),
    ("CCNC(=O)[C@H]1O[C@@H](n2cnc3c(NCCOCCOCCNC(=O)COc4ccc(/C=C/C5=[N+]6C(=Cc7ccc(-c8cccs8)n7[B-]6(F)F)C=C5)cc4)ncnc32)[C@H](O)[C@@H]1O", "102%"),
]

Here is another compound to look at.
Please list inhibition recorded for the compound CCNC(=O)[C@H]1O[C@@H](n2cnc3c(NCCNC(=O)COc4ccc(/C=C/C5=[N+]6C(=Cc7ccc(-c8cccs8)n7[B-]6(F)F)C=C5)cc4)ncnc32)[C@H](O)[C@@H]1O
100%

====

# MEASURED TARGET: UniProt P30542
# TEST NAME: Agonist activity at human adenosine A1 receptor expressed in CHO cells assessed as Gi-mediated inhibition of forskolin-stimulated SPAP secretion incubated for 10 mins prior to forskolin challenge measured after 5 hrs by spectrophotometry
Item-by-item account of IC50
State the answer as a number, implicitly in nM.

Answered examples (5):
# SUBSTANCE SMILES, RECORDED METRIC, MEASURED NUMBER
data = [
    ("CCNC(=O)[C@H]1O[C@@H](n2cnc3c(NCCNC(=O)COc4ccc(/C=C/C5=[N+]6C(=Cc7ccc(-c8cccs8)n7[B-]6(F)F)C=C5)cc4)ncnc32)[C@H](O)[C@@H]1O", "IC50", 2.04),
    ("CCNC(=O)[C@H]1O[C@@H](n2cnc3c(NCCOCCOCCNC(=O)COc4ccc(/C=C/C5=[N+]6C(=Cc7ccc(-c8cccs8)n7[B-]6(F)F)C=C5)cc4)ncnc32)[C@H](O)[C@@H]1O", "IC50", 74.1),
    ("CCNC(=O)[C@H]1O[C@@H](n2cnc3c(NCCCCCCCCNC(=O)COc4ccc(/C=C/C5=[N+]6C(=Cc7ccc(-c8cccs8)n7[B-]6(F)F)C=C5)cc4)ncnc32)[C@H](O)[C@@H]1O", "IC50", 26.9),
    ("CCNC(=O)[C@H]1O[C@@H](n2cnc3c(NCCOCCOCCOCCNC(=O)COc4ccc(/C=C/C5=[N+]6C(=Cc7ccc(-c8cccs8)n7[B-]6(F)F)C=C5)cc4)ncnc32)[C@H](O)[C@@H]1O", "IC50", 191),
    ("CCNC(=O)[C@H]1O[C@@H](n2cnc3c(NCCCCCCCCCCCNC(=O)COc4ccc(/C=C/C5=[N+]6C(=Cc7ccc(-c8cccs8)n7[B-]6(F)F)C=C5)cc4)ncnc32)[C@H](O)[C@@H]1O", "IC50", 129),
]

Please list IC50 recorded for the compound CCNC(=O)[C@H]1O[C@@H](n2cnc3c(NCCCCNC(=O)COc4ccc(/C=C/C5=[N+]6C(=Cc7ccc(-c8cccs8)n7[B-]6(F)F)C=C5)cc4)ncnc32)[C@H](O)[C@@H]1O
5.25

Please list IC50 recorded for the compound CCNC(=O)[C@H]1O[C@@H](n2cnc3c(NCCCNC(=O)COc4ccc(/C=C/C5=[N+]6C(=Cc7ccc(-c8cccs8)n7[B-]6(F)F)C=C5)cc4)ncnc32)[C@H](O)[C@@H]1O
0.49
